# assay.explanation: protein stability index of a GFP-peptide fusion (GPS, HEK-293T) (PSI 1-6); higher = more stable;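 also: 24-mer peptide tiles fused after GFP, lentivirally expressed, FACS-sorted into six equal bins by GFP/DsRed ratio, decoded by Illumina sequencing, PSI is the read-weighted mean bin number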
# condition.info: treatment: DMSO; c terminus: a fixed tail appended
readout.kind: protein stability index
Output: the number by itself.

IN: Which protein stability index reading was recorded for the sequence GAAGRSHHLDEDEERERIERVRRI [KCTD10] ?
OUT: 5.31

IN: Which protein stability index reading was recorded for the sequence GGYAIAVVLLQGAELLLAARLLGA [TSPAN10] ?
OUT: 2.81

IN: Which protein stability index reading was recorded for the sequence DSKSLKTHQTQPGIRRARDKALSG [NET1] ?
OUT: 4.63

IN: Which protein stability index reading was recorded for the sequence TNVRLQPAATWNLEEKRLTWRLPD [FCHO1] ?
OUT: 3.27

IN: Which protein stability index reading was recorded for the sequence EHDAWFIFFMAAFAFSNGYLASLC [SLC29A1] ?
OUT: 3.19

IN: Which protein stability index reading was recorded for the sequence SRVMFLLVDKETDKRHVEQKIQFK [PDZK1] ?
OUT: 2.62

IN: Which protein stability index reading was recorded for the sequence IEQDAVVPSEWLSSVYKQQWFAML [GMCL1] ?
OUT: 2.26

IN: Which protein stability index reading was recorded for the sequence AINRDTAFPGASHESSGNPPLRVI [RHOBTB3] ?
OUT: 3.44

IN: Which protein stability index reading was recorded for the sequence STLKTLLFFTALMITVPIGLYFTT [VMA21] ?
OUT: 2.45

IN: Which protein stability index reading was recorded for the sequence CRADHGLLLERAAAGSPRSPGPLP [ISL2] ?
OUT: 3.47

IN: Which protein stability index reading was recorded for the sequence AYVLSKYQYFVCPVEYRSDVNSFV [CDS1] ?
OUT: 2.6

IN: Which protein stability index reading was recorded for the sequence LLYKDGFSTILHLLLGSPHPAATA [LPCAT4] ?
OUT: 2.71

IN: Which protein stability index reading was recorded for the sequence RKPKVIECSYTSADGQRHHSKLLV [DHCR7] ?
OUT: 2.72

// data source = the supplement of paper PMC10567573
